Test: inhibitors of mutant huntingtin aggregation, primary screen, imaging, exon1htt(103Q)mCFP cells, high-content imaging (AID 483);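 further: compound exposure lasted 3 days before fixation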
Conditions: exon1htt(103Q)mCFP cell line, aggregate imaging, at 2 µM; stronger effect = higher value
REPORTED PROPERTY: inhibition of aggregation (%)
Numbers only here, please. The scale is %.

Short answer for `Cc1ccc(SCC(=O)NCCN2C(=O)CSC2=O)c(C)c1` : inhibition of aggregation was -4.2

COc1ccccc1N1CCN(CC(O)c2ccc3cc[nH]c3c2)CC1 (centres undefined) has a reported inhibition of aggregation of 3.6

The molecule `O=c1c2ccccc2c(/C=N/n2cnnc2)c(O)n1-c1ccccc1` showed inhibition of aggregation equal to -43

Query O=C(NCC(c1cccnc1)N1CCOCC1)c1cccs1 (centres undefined) yields inhibition of aggregation of -3.5

Sure, the documented inhibition of aggregation for COc1ccc(C2C(C(=O)NCCN3CCOCC3)c3ccccc3C(=O)N2C2CCCCC2)cc1 (centres undefined) is 12.7

inhibition of aggregation reading for `CCc1nnc(NC(=O)c2ccc(S(=O)(=O)N(CC(C)C)CC(C)C)cc2)o1` : 2.2

Noted for `O=C(CN1CCN(c2ncccn2)CC1)Nc1ccccc1-n1cccc1` : its inhibition of aggregation reads 16

What the record says about CCCOc1ccc(N2CC(C(=O)Nc3ccc4c(c3)OCO4)CC2=O)cc1 (centres undefined) : inhibition of aggregation is 14.9

// sample `COc1ccc(OC)c(-c2cc(C(=O)NCc3cccs3)no2)c1` , its inhibition of aggregation was 29.5

Looking up `Cc1cc(Br)ccc1NC(=O)CNC(=O)CSc1n[nH]c(N)n1` , I found its inhibition of aggregation recorded as -13.4

Lab note: `CC(C)(C)c1nnc(NC(=O)C2CCN(c3ncccn3)CC2)s1` gave inhibition of aggregation of -2.6

Reported inhibition of aggregation ( `Cc1ccc(-n2c(=O)c(C#N)cc3c(=O)n4ccccc4nc32)cc1` ) = -21.9

Entry `CC(=O)c1cnc2cc(-c3ccccc3)nn2c1C` , inhibition of aggregation reported as 26.1

// `Cc1ccc2cc3cc(C(=O)NCCN4CCOCC4)oc3nc2c1` : inhibition of aggregation value = 3.7

inhibition of aggregation reading for O=C(O)C1CCCN(S(=O)(=O)c2ccc(Cl)s2)C1 (centres undefined) : 13.3

Lookup result for `COc1ccc(S(=O)(=O)Nc2ccc3c(c2)OCO3)cc1Cl` ; measured inhibition of aggregation: -18.4

Note to self: inhibition of aggregation recorded for `COc1cccc(Nc2cc(C)nc3ccccc23)c1` was 11.8

The value of inhibition of aggregation measured for the molecule `O=C(CCS(=O)(=O)c1cccc2nsnc12)NCc1ccccc1` turned out to be -14.8

Field inhibition of aggregation (entry CCCCSCCCNC(=O)CS(=O)Cc1nc(-c2cccc(C)c2)oc1C (centres undefined) ) reads -1.1

Entry `CCCCc1ccc(NC(=O)N[C@H](C(=O)O)C(C)C)cc1` , inhibition of aggregation reported as -0.3

Memo: CCN1CCN(C(CNC(=O)c2ccc3c(c2)OCO3)c2cccnc2)CC1 (centres undefined) , reported inhibition of aggregation: 0.6

The recorded inhibition of aggregation for `CC(C)c1nnc(SCC(=O)NCc2ccco2)n1C` is -12.1

# inhibition of aggregation of `COC(=O)c1c(N)sc(C(=O)N2CCOCC2)c1C` = 3

Just so you know, measured inhibition of aggregation for `O=C(NCc1ccco1)C1(S(=O)(=O)c2ccc(Cl)cc2)CC1` came out at -16

###

Could you please report measured inhibition for the items listed next?
Test: inhibitors of E-selectin induction by TNFa, primary screen, imaging, HUVEC, immunofluorescence, MLSMR starter and 10KST1 sets (AID 487);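 further: signal is fraction of cell area covered by stained E-selectin grains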
Settings: HUVEC TNFalpha-induced E-selectin immunofluorescence imaging, at 2 µM; stronger effect = higher value
Write down the numeric answer in % and omit the unit.

Item: COc1ccc(CCNC(=O)CCN2C(=O)C3CC=CCC3C2=O)cc1OC (stereo unspecified) | inhibition: -53.4

# inhibition of `C=CCc1ccccc1OCCCCN1CCCC1` = -10.4

Field inhibition (entry `O=C(Nc1ccccc1)N(O)c1ccc(Cl)cc1` ) reads 44.1

Item: `O=C(OCN1C(=O)c2ccccc2C1=O)C1CCCCC1` | inhibition: -43.8

The compound listed as `CCOC(=O)C1=C(N)N2C(=O)CSC2=C(C(=O)OC)C1` shows inhibition equal to -111

Recorded result, COc1cc(OC)c2c(c1)OC(c1ccc(OC)c(OC)c1)C(O)C2=O (stereo unspecified) , inhibition: -60

The reported value for `CCN1CCN(c2nc3c(c(=O)[nH]c(=O)n3C)n2CCSc2nc3ccccc3s2)CC1` in terms of inhibition is -45.2

Entry Cc1c(NC(=O)C(C)OC(=O)c2cc3c4ccccc4n(C)c3s2)c(=O)n(-c2ccccc2)n1C (stereo unspecified) — recorded inhibition = -1.3

The value of inhibition measured for the compound COC(=O)c1[nH]c(C)c(/C(O)=C2\C(=O)C(=O)N(CCN3CCOCC3)C2c2ccccc2OC)c1C (stereo unspecified) turned out to be -13.3

According to the records, this compound CCOC(=O)C1CCCN(c2c(NCc3ccco3)c(=O)c2=O)C1 (stereo unspecified) displays inhibition of -52.6

Looking up `COc1ccccc1NC(=O)c1c(C)cc(=O)oc1C` , I found its inhibition recorded as 35.3

###

Test: inhibitors of TNFa-induced NFkB p65 translocation, primary screen, imaging, HUVEC, MLSMR starter and 10KST1 sets (AID 438);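 further: compound added about 3h40 before a 20 min TNFalpha stimulation; signal is the nuclear over cytoplasmic p65 intensity ratio per well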
Conditions: HUVEC TNFa-induced p65 nuclear translocation; at 2 µM, stronger effect = higher value, 0% TNFa-plus-vehicle, 100% no-TNFa wells
REPORTED PROPERTY: inhibition (%)
API: value field is a number in %; no unit string.

inhibition recorded for this compound, `COc1ccccc1-c1c(C)oc2c(CN3CCN(C)CC3)c(O)ccc2c1=O` , is -0.2

response.value for `Cc1cccc2cc(C#N)c(SCCN3CCCCC3)nc12` (field: inhibition) = -7.1

// field: inhibition; key: `CCOC(=O)c1sc(NC(=O)c2noc3c2CCCC3)c(C(=O)OCC)c1C` ; value = -2.9

The compound identified as `COCCNc1oc(-c2ccc(F)cc2)nc1C#N` registered its inhibition at -8.1

Lookup result for `COc1cc(Br)cc(CN2CCN(C/C=C/c3ccccc3)CC2)c1O` ; measured inhibition: 5.8

Entry CCOC(=O)C(NC(C)=O)(NS(=O)(=O)c1ccccc1)C(F)(F)F (stereo unspecified) , inhibition reported as -2.4

###

I'd appreciate it if you could supply z-score values for the items below.
Assay: DUSP6 inhibitors restoring Erk phosphorylation by chemical complementation, primary imaging in DUSP6-transfected HeLa (AID 609)
Settings: HeLa MKP-3 transfected, phospho-Erk imaging KS statistic; measured here: cell density z-score; at 10 µM; cells stimulated with TPA for 15 min
I only need the number, thanks.

// z-score value for O=C1CC(c2ccccc2)n2nc(N3C(=O)c4ccccc4C3=O)nc2N1 (stereo not given) : 0.561

z-score in this record for `COc1cccc(C(=O)Nc2ccc(-c3nnc(-c4ccco4)o3)cc2)c1` : -0.186

// z-score value for `Cc1[nH]nc(-c2ccc(O)cc2O)c1Oc1ccccc1` : 1.43

Reported z-score of CCOC(=O)c1[nH]c2cc3c(cc2c1NC(=O)CN1CC(C)CC(C)C1)OCO3 (stereo not given) : 0.5

Looking up `CC1(C)Cc2c(C#N)c(SCCOc3ccccc3)nc(N3CCOCC3)c2CO1` , I see its z-score listed as -1.25

Reported z-score for `CCc1ccc(-c2cn3nc(C)c(C)nc3n2)cc1` was 0.256

Entry under test: `CCOC(=O)c1[nH]c2ccccc2c1N=CN(CC)CC` . Its z-score was -0.555

Note to self: z-score recorded for CCOc1ccc2nc(NC(NC(C)=O)(C(=O)OC)C(F)(F)F)sc2c1 (stereo not given) was -0.584

Consider `CC(C)(C)NC(=O)/C=N/O` . Its measured z-score is -0.0727

The compound identified as `CC1(C)Cc2c(c(-c3ccccc3Cl)[nH]c(=O)c2C#N)CO1` registered its z-score at 0.999

###

Assay: DUSP6 inhibitors restoring Erk phosphorylation by chemical complementation, primary imaging in DUSP6-transfected HeLa (AID 609)
Settings: HeLa MKP-3 transfected, phospho-Erk imaging KS statistic; measured here: cell density z-score; at 10 µM; cells stimulated with TPA for 15 min
REPORTED PROPERTY: z-score
Please reply with the number alone, leaving off any unit.

The compound `Cc1cc(C)n(CC(=O)c2ccccc2)c(=O)c1C#N` showed z-score equal to -1.09

Measured z-score of O=C(CC(c1ccc(F)cc1)c1ccco1)N1CCCC1 (stereo unspecified) : -0.749

Just so you know, measured z-score for `CCN(CC)c1ccc(C2Nc3cccc4cccc(c34)N2)c(O)c1` came out at 0.205

Reported z-score of COC(=O)c1[nH]c2cc(OC)ccc2c1NC(=O)CN1CCN(c2cccc(C)c2)C(C)C1 (stereo unspecified) : -0.376

Please fill in: z-score reported for `CC1(C)Cc2c(c(N3CCOCC3)nc3sc4c(=O)[nH]cnc4c23)CS1` = -0.312

For `COc1ccccc1-c1nnc2n1N=C(c1ccc(O)c(O)c1)CS2` the compound record lists z-score as 1.36

Consider `CN(C)C(=O)COn1c(SCC(=O)N(C)C)nc2ccccc2c1=O` . Its measured z-score is -0.833

Lookup result for `Cn1c(NCc2cccnc2)nc2c1c(=O)n(Cc1ccccc1F)c(=O)n2C` ; measured z-score: 0.699

Record `Cn1c[n+](C)cc1/C=N/O` , field z-score: -0.468

Record summary for `Cn1c(=O)[nH]c(=O)c2c1nc(Br)n2CCSc1ncccn1` : reported z-score = 0.65

The reported value for CC1(C)C2CCC1(C)C(NC(=O)CCN1CCCCC1)C2 (stereo unspecified) in terms of z-score is 0.233
